test system: A549 (human lung cancer) cells; experiment: MTT antiproliferative assay, A549 cells; type: cell-based; details: Homo sapiens, A549, 72 h, read-out: IC50 A549
quantity measured: IC50 (µM)
Field: numeric (µM). Do not append units.

{"columns": ["chemical structure", "scale unit", "reading"],
 "data": [
  ["COc1cc(-c2nc3ccccc3n2Cc2cn(CC(=O)Nc3ccccc3)nn2)cc(OC)c1OC", "µM", 114]
]}

Query :: Identify measured IC50 obtained with A549 (human lung cancer) cells for `COc1cc(-c2nc3ccccc3n2Cc2cn(CC(=O)NCc3ccccc3)nn2)cc(OC)c1OC` .
Result :: 47.9

Query :: Identify measured IC50 obtained with A549 (human lung cancer) cells for `COc1cc(-c2nc3ccccc3n2Cc2cn(CC(=O)Nc3ccccc3F)nn2)cc(OC)c1OC` .
Result :: 48.9

Query :: Identify measured IC50 obtained with A549 (human lung cancer) cells for `COc1cc(-c2nc3ccccc3n2Cc2cn(CC(=O)Nc3ccc(C)cc3)nn2)cc(OC)c1OC` .
Result :: 67.4

Query :: Identify measured IC50 obtained with A549 (human lung cancer) cells for `COc1cc(-c2nc3ccccc3n2Cc2cn(CC(=O)Nc3cccc(C)c3C)nn2)cc(OC)c1OC` .
Result :: 37.9

Query :: Identify measured IC50 obtained with A549 (human lung cancer) cells for `COc1cc(-c2nc3ccccc3n2Cc2cn(CC(=O)Nc3ccc(Cl)cc3Cl)nn2)cc(OC)c1OC` .
Result :: 31.5

Query :: Identify measured IC50 obtained with A549 (human lung cancer) cells for `CCc1ccc(NC(=O)Cn2cc(Cn3c(-c4cc(OC)c(OC)c(OC)c4)nc4ccccc43)nn2)cc1` .
Result :: 50.3

Query :: Identify measured IC50 obtained with A549 (human lung cancer) cells for `COc1ccc(NC(=O)Cn2cc(Cn3c(-c4cc(OC)c(OC)c(OC)c4)nc4ccccc43)nn2)c(OC)c1` .
Result :: 16.1

----------
tested on: A549 (human lung cancer) cells; experiment: MTT antiproliferative assay, A549 cells; format: cell-based; conditions: Homo sapiens, A549, 72 h, read-out: IC50 A549
Sorting guide: entries reporting IC50 beneath 20 µM go in the T pile, the rest go in the F pile.

Solved cases below.
{"columns": ["compound", "label"],
 "data": [
  ["COc1cccc2c1C(=O)c1c(O)c3c(c(O)c1C2=O)C[C@@](O)(C(=O)CO)C[C@@H]3O[C@H]1C[C@H](N)[C@H](O)[C@H](C)O1 [Doxorubicin, reference compound]", "T"],
  ["COc1cc(-c2nc3ccccc3n2Cc2cn(CC(=O)Nc3ccccc3[N+](=O)[O-])nn2)cc(OC)c1OC", "F"],
  ["COc1ccc(NC(=O)Cn2cc(Cn3c(-c4cc(OC)c(OC)c(OC)c4)nc4ccccc43)nn2)cc1", "F"],
  ["COc1cc(-c2nc3ccccc3n2Cc2cn(CC(=O)Nc3ccc(Br)cc3)nn2)cc(OC)c1OC", "F"],
  ["COc1cc(-c2nc3ccccc3n2Cc2cn(CC(=O)Nc3ccc(C)cc3C)nn2)cc(OC)c1OC", "F"]
]}

Query :: Hello, is IC50 of the following compound strictly smaller than 20 µM? `COc1cc(-c2nc3ccccc3n2Cc2cn(CC(=O)Nc3ccccc3Cl)nn2)cc(OC)c1OC`
Result :: F
